Values compiled from patent US20240309103A1.

Target: T1, mfNPR1-mFc:hBNP complex (monkey; human, UniProt P16860 103-134)
T1 construct: also called monkey NPR1 complexed to BNP
Experiment: SPR, mAb captured, 25C
RESULT TYPE: koff (s⁻¹)
Give a bare numeral; the unit s⁻¹ is implied.

// query koff lookup needed for mAb25479 (antibody, human IgG4, V domains shown) VH: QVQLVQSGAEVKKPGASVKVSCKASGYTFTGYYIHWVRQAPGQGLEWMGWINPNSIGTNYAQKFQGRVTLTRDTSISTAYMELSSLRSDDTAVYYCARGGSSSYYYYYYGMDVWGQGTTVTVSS VL: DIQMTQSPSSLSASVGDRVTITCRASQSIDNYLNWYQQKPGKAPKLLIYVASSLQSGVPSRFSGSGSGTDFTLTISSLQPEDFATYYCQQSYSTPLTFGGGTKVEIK , thanks.
// result 0.000113

// query Which koff value is on record for mAb25497 (antibody, human IgG4, V domains shown) VH: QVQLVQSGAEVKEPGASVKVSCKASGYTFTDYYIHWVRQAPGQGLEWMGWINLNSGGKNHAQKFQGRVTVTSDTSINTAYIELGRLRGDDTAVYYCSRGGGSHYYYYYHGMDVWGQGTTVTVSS VL: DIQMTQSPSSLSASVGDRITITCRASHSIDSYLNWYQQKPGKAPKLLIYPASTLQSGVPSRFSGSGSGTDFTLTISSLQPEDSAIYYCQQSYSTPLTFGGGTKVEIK ?
// result 4.47e-05

// query Query (binder): mAb22809 (antibody, human IgG4, V domains shown) VH: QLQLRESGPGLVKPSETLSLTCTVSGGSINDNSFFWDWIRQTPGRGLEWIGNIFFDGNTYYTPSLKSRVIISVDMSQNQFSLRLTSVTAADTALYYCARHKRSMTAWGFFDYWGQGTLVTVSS VL: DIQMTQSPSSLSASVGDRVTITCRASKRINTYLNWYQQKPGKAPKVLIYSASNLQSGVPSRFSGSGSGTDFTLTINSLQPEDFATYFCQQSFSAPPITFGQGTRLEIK ; field requested: koff
// result 0.00016
